Let's look at some molecules and their measured melting point.

Please review the entries below; each comes with its answer.
- CC(C)CNc1c(N)n(CC(C)C)c(=O)[nH]c1=O: 197 to 199 °C
- COc1ccc(CN2C(=O)NC(=O)C2=O)cc1: 168 to 170 °C
- O=C(O)CN1C(=O)c2ccc([N+](=O)[O-])cc2C1=O: 197 to 199 °C
- CC(O)c1cnc(-c2ccc(Br)cc2)s1 (stereo not drawn): 77 to 79 °C
- NS(=O)(=O)Cc1ccc(Br)cc1: 191 to 193 °C
- CCOc1ccc(-c2nc(CO)cs2)cc1: 107 to 109 °C

Now for a further molecule.
Input `Cc1cc2n(n1)C(=O)CC(=O)N2` , output reported melting point. 219 to 221 °C

---

measured-endpoint: melting point

Study these solved cases before continuing.
• CCNC(=O)Nc1cccc([N+](=O)[O-])c1 = 141 to 143 °C
• NNC(=O)c1ccc(O)c(Cl)c1 = 280 to 282 °C
• Nc1ccc(-c2nc3cccc(Cl)c3s2)cc1 = 149 to 151 °C
• O=C(O)c1ccc(SC2CCOC2=O)cc1 (stereo not drawn) = 169 to 171 °C
• CC12CCCC(C(=O)O)(CCC1)C2 = 144 to 146 °C
• Cc1ccc(-c2nnc(S)o2)cc1C = 195 to 197 °C

For the compound `Nc1ccc(S(=O)(=O)Nc2ccccc2)cc1` , report melting point. 176 to 178 °C

Give me measured melting point, please, for this compound: `Cn1c(=O)[nH]c2ccc(C(=O)O)cc21` 366 to 368 °C

Consider the compound `O=C(O)CCNc1ccc(C(F)(F)F)cc1[N+](=O)[O-]` . State its measured melting point. 130 to 134 °C

Note melting point for the compound shown: `Cc1cc(C=CC(=O)O)cnc1N` 229 to 231 °C

Give melting point for `Cc1c(N)cc(C#N)cc1F` 135 to 137 °C

Give the reported value of melting point for this record: `O=C(O)CNS(=O)(=O)c1ccc(Cl)cc1` 177 to 179 °C

Please give the documented melting point of `CC(C)c1ccc(NCC(=O)N2CCCC2)cc1` 127 to 129 °C

---

measured-endpoint: melting point

As a guide, the following entries are already answered.
* Nc1ccc(Cl)c(CN2CCCCC2)c1 | 125 to 127 °C
* OC1CNCC1N1CCCC1 (stereo not drawn) | 82 to 84 °C
* CCC(CC)C(N)=S | 55 to 57 °C
* O=c1ccn2ncnc2[nH]1 | 282 to 284 °C
* Nc1ncc(C=NO)s1 | 211 to 213 °C
* COc1ccc(N)cc1C | 31 to 33 °C

Indicate its recorded melting point; the compound in question is `CC(=CC(=O)O)c1ccccc1C(F)(F)F` 133 to 135 °C

For `O=S(=O)(c1ccc(F)cc1)C(F)F` , write its melting point. 51 to 53 °C

---

Documented melting point across a set of molecules

Field: example entries. Status: answers known.
- COc1ccc(C(=O)c2ccccc2)c(OC)c1: 81 to 83 °C
- Nc1ccn(-c2ccncc2)n1: 192 to 194 °C
- O=C(O)c1cc2c(s1)-c1cc(F)ccc1SC2: 279 to 281 °C
- COc1ccc(OC)c(CBr)c1: 77 to 79 °C
- OCCNc1ccc(Cl)nn1: 133 to 135 °C
- O=C1Cc2ccc(Br)cc2N1: 216 to 220 °C
- NC(=O)NC(CC(=O)O)c1ccccc1Cl (centres undefined): 163 to 165 °C
- N#Cc1ccccc1Oc1ccccn1: 72 to 74 °C
- CCCOc1ccc(Br)cc1C=O: 47 to 49 °C
- Fc1ccc(-c2nnc3cc(Cl)ncn23)c(F)c1: 170 to 172 °C

Output measured melting point for this item: COC(=O)C(CCl)NC(C)=O (centres undefined) 74 to 76 °C

For the molecule `O=Cc1ccc(-c2ccccc2[N+](=O)[O-])s1` , give its reported melting point. 112 to 114 °C

Supply melting point value. Item: `CCc1c(C(=O)O)nnn1-c1cccc(N)c1` 179 to 181 °C

Tell us which melting point value is on record for CNC(=O)COc1ccc(C(C)O)cc1 (centres undefined) 84 to 86 °C

# credit: a melting point compilation (Tetko et al.)
